Data provenance is PubChem BioAssay.

Reported composite z-score values are given for each entry in this list.
assaySummary: compound binding in COS7 lysate, probe aLAP1, primary screen, cell lysate, small-molecule microarray (AID 1124);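 note: lysate comes from COS7 cells expressing LAP1 and is applied at 0.3 µg/mL; score merges spot fluorescence near 667 nm with signal-to-noise over triplicate slides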
experimentalContext: probe aLAP1, fluorescence, higher = more signal
Keep the answer to the number alone.

Worked examples, 5 compounds total:
Any idea what composite z-score was measured for Cc1ccc(F)cc1S(=O)(=O)N[C@@H]1CCN(Cc2cccc3[nH]ccc23)C1 ?
0.136

Any idea what composite z-score was measured for COc1cc2c(cc1O)C(c1cccs1)N(Cc1sc3ccccc3c1Cl)CC2 (stereo not given) ?
1.17

Any idea what composite z-score was measured for COCCOC(=O)N1C(=O)[C@@]2(c3cc(C#CCNC(N)=O)ccc31)[C@H](c1ccc(OCCO)cc1)N1[C@H](c3ccccc3)[C@H](c3ccccc3)OC(=O)[C@H]1[C@@H]2C(=O)NC[C@H](O)c1ccccc1 ?
0.442

Any idea what composite z-score was measured for C=C(CCCC)C(=O)CC[C@H](OC(=O)c1ccccc1-c1ccccc1C(=O)O)c1ccccc1OCCO ?
0.61

Any idea what composite z-score was measured for C=C(COC)C(=O)CC[C@H](OC(C)=O)c1ccc(OCCO)cc1 ?
2.46

More entries:
Any idea what composite z-score was measured for CCCNC(=O)[C@@]1(Sc2ccc(C)cc2)CC(=O)N(C(C)C)[C@@H]1c1ccc(CO)cc1I ?
0.846

Any idea what composite z-score was measured for COc1ccc(CCNC(=O)[C@@]2(Cc3ccccc3I)c3ccccc3C(=O)N(Cc3ccccc3Cl)[C@H]2c2ccc(CO)cc2)cc1 ?
0.529

Any idea what composite z-score was measured for C=CCC(OC(C)=O)[C@@H]1[C@@H](N(Cc2cc3ccccc3o2)C(=O)c2ccc(-c3ccccc3)cc2)c2cc(OCCCO)ccc2N1C(=O)Cc1ccc(OC)cc1 (stereo not given in full) ?
-0.237

Any idea what composite z-score was measured for C#C[C@@H](CC)O[Si](C#CCCCC#N)(C(C)C)C(C)C ?
-0.252

Any idea what composite z-score was measured for CN(C)C(=O)[C@@]1(CCC(=O)OC(C)(C)C)N=C(c2ccc(OCCCO)cc2)O[C@H]1c1ccccc1CN=[N+]=[N-] ?
0.626

Any idea what composite z-score was measured for CN1C=C(C(=O)OCCS(C)(=O)=O)C(C(=O)OCCS(C)(=O)=O)=CC(c2ccc(CO)cc2)=CC1c1cccs1 (stereo not given) ?
0.279

Any idea what composite z-score was measured for C=C/C=C/[C@@H]1C(=C)CN([C@@H](Cc2ccccc2)C(=O)OC)[C@H]1[C@@H](O)Cc1ccccc1 ?
0.137

Any idea what composite z-score was measured for C[C@@H]1ON(c2ccc(I)cc2)[C@H](c2ccc(OC(=O)OC(C)(C)C)cc2)[C@H]1C(=O)N1C(=O)OC[C@H]1Cc1ccccc1 ?
-0.36

Any idea what composite z-score was measured for CCOC(=O)C[C@H]1[C@H](OC(=O)c2cc3ccccc3oc2=O)[C@@H](NC(=O)c2ccc3ccccc3c2)c2cc(OCCCO)ccc2N1C(=O)Cc1ccc(OC)cc1 ?
0.241

Any idea what composite z-score was measured for COc1cc(CO)cc(I)c1O[C@H]1C=C(C(=O)NCCO)C[C@@H](NCC2CCCCC2)[C@@H]1O ?
-0.102
